Data origin: ChEMBL document CHEMBL5042510

# assayComment: Total plasma clearance in Wistar Han rat at 2 mg/kg, iv by LC-MS/MS analysis
# Assay type: ADME, organism-based
Consider the following compounds; for each one, report its clearance.
Write the answer as a number in mL/min/kg, unit excluded.

Endpoint output: clearance of Cc1c(Nc2ncc3cc(Cl)c(C4CCN(C5COC5)CC4)cc3n2)cnn1C1CC1 . Value?
14

For the compound shown here, Cc1c(Nc2ncc3cc(Cl)c(C4CCN([C@@H]5COC[C@@H]5O)CC4)cc3n2)cnn1[C@@H]1CC1(F)F , give the reported clearance.
28

Which measured clearance value corresponds to FC1CN(C2COC2)CCC1c1cc2nc(Nc3cnn(C4CC4)c3Cl)ncc2cc1Cl (stereo not given) ?
18

May I ask what clearance has been recorded for O[C@H]1COC[C@H]1N1CC[C@@H](c2cc3nc(Nc4cnn([C@@H]5CC5(F)F)c4Cl)ncc3cc2Cl)[C@H](F)C1 ?
19

Tell me the measured clearance of CC(C)(O)Cn1ncc(Nc2ncc3cc(Cl)c(C4CCN(C5COC5)CC4)cc3n2)c1Cl , please.
11

----------
# assayComment: Oral bioavailability in Beagle dog by LC-MS/MS analysis
# Type: ADME, organism-based, Canis lupus familiaris
# testParameters: in vivo
attributeMeasured: bioavailability (%)
Reply numerically in %, unit not repeated.

Given the compound Cc1c(Nc2ncc3cc(Cl)c(C4CCN(C5COC5)CC4)cc3n2)cnn1C1CC1 , what is its reported bioavailability?
38

----------
# measurementTarget: Leucine-rich repeat serine/threonine-protein kinase 2 (Homo sapiens, UniProt Q5S007, G2019S)
# Sequence (Q5S007 whole entry G2019S, the tested form may be a part): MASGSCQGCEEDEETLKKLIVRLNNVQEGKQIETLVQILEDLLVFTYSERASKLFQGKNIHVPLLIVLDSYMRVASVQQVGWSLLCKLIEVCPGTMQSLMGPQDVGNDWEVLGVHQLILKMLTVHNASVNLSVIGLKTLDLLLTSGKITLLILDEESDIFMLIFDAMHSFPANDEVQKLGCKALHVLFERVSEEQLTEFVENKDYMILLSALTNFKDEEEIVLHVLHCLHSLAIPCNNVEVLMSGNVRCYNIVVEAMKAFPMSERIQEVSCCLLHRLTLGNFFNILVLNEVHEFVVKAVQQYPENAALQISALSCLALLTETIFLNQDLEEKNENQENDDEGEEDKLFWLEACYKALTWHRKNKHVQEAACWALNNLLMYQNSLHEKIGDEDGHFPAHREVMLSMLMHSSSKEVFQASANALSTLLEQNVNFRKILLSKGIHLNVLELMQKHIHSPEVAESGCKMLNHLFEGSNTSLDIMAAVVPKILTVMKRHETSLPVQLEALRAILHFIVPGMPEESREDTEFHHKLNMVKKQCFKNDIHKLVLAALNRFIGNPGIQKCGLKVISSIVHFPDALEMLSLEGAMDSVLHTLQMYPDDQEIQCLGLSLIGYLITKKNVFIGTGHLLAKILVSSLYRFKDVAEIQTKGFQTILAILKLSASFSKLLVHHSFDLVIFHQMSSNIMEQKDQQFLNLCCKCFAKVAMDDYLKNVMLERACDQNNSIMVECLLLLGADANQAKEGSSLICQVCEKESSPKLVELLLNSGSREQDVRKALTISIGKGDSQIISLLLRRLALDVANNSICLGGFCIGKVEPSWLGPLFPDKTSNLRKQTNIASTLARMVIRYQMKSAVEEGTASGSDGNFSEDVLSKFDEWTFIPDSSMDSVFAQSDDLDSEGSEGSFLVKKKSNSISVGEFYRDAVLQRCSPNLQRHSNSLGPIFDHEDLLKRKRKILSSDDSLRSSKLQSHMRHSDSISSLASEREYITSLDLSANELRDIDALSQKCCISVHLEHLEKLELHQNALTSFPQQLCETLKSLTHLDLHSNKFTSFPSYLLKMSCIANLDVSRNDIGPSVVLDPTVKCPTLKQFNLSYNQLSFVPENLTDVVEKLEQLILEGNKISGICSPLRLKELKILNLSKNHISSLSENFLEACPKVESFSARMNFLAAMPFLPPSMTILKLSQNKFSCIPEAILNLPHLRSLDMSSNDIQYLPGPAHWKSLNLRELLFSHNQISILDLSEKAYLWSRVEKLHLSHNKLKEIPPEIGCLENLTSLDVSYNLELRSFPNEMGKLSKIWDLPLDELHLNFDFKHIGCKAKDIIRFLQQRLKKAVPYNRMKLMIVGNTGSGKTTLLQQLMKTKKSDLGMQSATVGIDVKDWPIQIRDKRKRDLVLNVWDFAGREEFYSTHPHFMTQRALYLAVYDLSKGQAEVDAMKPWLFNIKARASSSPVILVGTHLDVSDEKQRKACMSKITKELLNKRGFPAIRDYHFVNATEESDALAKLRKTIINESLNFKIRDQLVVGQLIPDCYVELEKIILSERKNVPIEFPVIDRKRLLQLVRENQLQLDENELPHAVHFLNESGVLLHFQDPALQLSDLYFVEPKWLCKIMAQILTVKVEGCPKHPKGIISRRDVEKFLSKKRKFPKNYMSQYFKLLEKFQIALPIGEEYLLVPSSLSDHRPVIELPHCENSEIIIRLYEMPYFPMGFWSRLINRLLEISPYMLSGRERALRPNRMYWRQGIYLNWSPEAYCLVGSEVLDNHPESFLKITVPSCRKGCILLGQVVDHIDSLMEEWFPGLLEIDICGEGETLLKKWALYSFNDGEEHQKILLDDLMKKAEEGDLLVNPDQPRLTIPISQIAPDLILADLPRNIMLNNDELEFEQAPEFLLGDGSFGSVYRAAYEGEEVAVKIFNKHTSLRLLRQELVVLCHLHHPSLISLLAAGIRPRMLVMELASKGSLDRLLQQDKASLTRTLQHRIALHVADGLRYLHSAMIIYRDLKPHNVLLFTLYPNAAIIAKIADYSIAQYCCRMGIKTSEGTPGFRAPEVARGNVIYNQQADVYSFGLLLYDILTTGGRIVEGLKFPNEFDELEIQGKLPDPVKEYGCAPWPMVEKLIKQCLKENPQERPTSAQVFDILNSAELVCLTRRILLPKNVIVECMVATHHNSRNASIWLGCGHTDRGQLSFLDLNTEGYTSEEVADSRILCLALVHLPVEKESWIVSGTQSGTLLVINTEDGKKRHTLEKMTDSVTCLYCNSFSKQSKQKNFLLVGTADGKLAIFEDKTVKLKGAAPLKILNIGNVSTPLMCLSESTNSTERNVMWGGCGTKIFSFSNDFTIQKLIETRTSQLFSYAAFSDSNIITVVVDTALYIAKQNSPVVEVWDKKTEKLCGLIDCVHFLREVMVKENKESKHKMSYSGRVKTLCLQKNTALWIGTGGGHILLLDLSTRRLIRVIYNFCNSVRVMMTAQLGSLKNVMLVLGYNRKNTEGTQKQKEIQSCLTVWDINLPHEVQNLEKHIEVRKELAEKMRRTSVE
# assayComment: Inhibition of recombinant N-terminal GST-fused LRRK2 […] mutant (970 to 2527 residues) (unknown origin) preincubated with enzyme for 15 mins followed by fluorescein-labeled LRRKtide peptide substrate and ATP addition for 90 mins by TR-FRET assay
attributeMeasured: IC50

I am curious: what IC50 value has been reported for FC(F)Cn1ncc(Nc2ncc3cc(Cl)c(C4CCN(C5COC5)CC4F)cc3n2)c1Cl (stereo not drawn) ?
< 0.6 nM

Quick one: IC50 for Cc1c(Nc2ncc3ccc(N4C(=O)OC[C@@H]4C)cc3n2)cnn1C1CCOCC1 ?
< 0.6 nM

Name the reported IC50 value associated with the molecule O[C@H]1COC[C@H]1N1CC[C@@H](c2cc3nc(Nc4cnn([C@@H]5CC5(F)F)c4Cl)ncc3cc2Cl)[C@H](F)C1
< 0.6 nM

----------
# assayComment: Intrinsic clearance in rat hepatocytes at 0.3 uM incubated for 90 mins by LC/MS/MS analysis
# Assay type: ADME, cell-based, Hepatocyte
# testParameters: read-out: CLH
attributeMeasured: CLint scaled at 0.3 µM

Any idea what its CLint scaled at 0.3 µM is? The compound is O[C@H]1COC[C@H]1N1CC[C@@H](c2cc3nc(Nc4cnn([C@@H]5CC5(F)F)c4Cl)ncc3cc2Cl)[C@H](F)C1
248 mL/min/kg

# lookup: CLint scaled at 0.3 µM of FC1CN(C2COC2)CCC1c1cc2nc(Nc3cnn(C4CC4(F)F)c3Cl)ncc2cc1Cl (centres undefined)
210 mL/min/kg

For the compound shown here, FC(F)Cn1ncc(Nc2ncc3cc(Cl)c(C4CCN(C5COC5)CC4F)cc3n2)c1Cl (centres undefined) , give the reported CLint scaled at 0.3 µM.
336 mL/min/kg

Would you kindly share the measured CLint scaled at 0.3 µM for FC1CN(C2CCOC2)CCC1c1cc2nc(Nc3cnn(C4CC4(F)F)c3Cl)ncc2cc1Cl (centres undefined) ?
2640 mL/min/kg
